# assayedSystem: Human recombinant MMP-2 (Homo sapiens, UniProt P08253)
# Construct: made in house; host or cells: MMP-2-transfected p2AHT2 cells
# Sequence (P08253 110-660): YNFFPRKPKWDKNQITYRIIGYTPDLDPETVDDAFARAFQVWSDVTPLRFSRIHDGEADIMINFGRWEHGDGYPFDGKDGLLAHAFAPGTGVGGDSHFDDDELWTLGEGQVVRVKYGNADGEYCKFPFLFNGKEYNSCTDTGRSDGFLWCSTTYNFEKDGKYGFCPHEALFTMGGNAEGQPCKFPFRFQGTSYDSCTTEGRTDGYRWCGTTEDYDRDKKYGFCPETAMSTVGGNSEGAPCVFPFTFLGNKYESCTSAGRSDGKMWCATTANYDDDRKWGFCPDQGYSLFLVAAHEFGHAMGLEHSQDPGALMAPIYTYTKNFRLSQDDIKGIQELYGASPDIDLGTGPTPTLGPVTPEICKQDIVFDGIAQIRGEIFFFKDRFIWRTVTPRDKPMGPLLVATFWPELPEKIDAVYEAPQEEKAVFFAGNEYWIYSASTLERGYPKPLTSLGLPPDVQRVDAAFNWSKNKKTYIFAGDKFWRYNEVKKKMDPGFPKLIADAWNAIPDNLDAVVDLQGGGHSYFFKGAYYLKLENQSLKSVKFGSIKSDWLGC
# protocolDetails: In vitro MMP inhibition analysis (fluorogenic peptide substrate), MMP-2
# Assay type: biochemical
# experimentalConditions: human recombinant enzyme; 4 μM substrate (A); apparent Ki without substrate correction
Answer each item with its documented pKi.
Here pKi is given on a logarithmic scale as minus log10 of the concentration in mol/L.

pKi of O=C(NO)C1(S(=O)(=O)c2ccc3nc(-c4ccc(C(F)(F)F)cc4)sc3c2)CCOCC1 on Human recombinant MMP-2 (Homo sapiens, UniProt P08253)?
8.73

Form: Entry = O=C(NO)C1(S(=O)(=O)c2ccc(-c3ccc(OCC(F)(F)F)cc3)nc2)CCOCC1 | System = Human recombinant MMP-2 (Homo sapiens, UniProt P08253) | pKi = ____
9.44

Give pKi (Human recombinant MMP-2 (Homo sapiens, UniProt P08253)) of the following molecule: O=C(NO)C1(S(=O)(=O)c2ccc(-c3ccc(OC(F)(F)F)cc3)nc2)CCOCC1
9.09

// fetch Human recombinant MMP-2 (Homo sapiens, UniProt P08253) pKi for O=C(NO)C1(S(=O)(=O)c2ccc3nc(-c4cccc(C(F)(F)F)c4)sc3c2)CCOCC1
6.21

Form entry - test system: Human recombinant MMP-2 (Homo sapiens, UniProt P08253); read-out: pKi; molecule: O=C(NO)C1(S(=O)(=O)c2ccc3nc(N4CCC(Oc5ccc(OC(F)(F)F)cc5)CC4)sc3c2)CCOCC1
7.39

Please provide the recorded pKi for CN(C(=O)Cc1ccc(-c2ccc(S(=O)(=O)C3(C(=O)NO)CCOCC3)cn2)cc1)c1ccc(OC(F)(F)F)cc1 , tested on Human recombinant MMP-2 (Homo sapiens, UniProt P08253).
9.66

Lab note: need pKi with Human recombinant MMP-2 (Homo sapiens, UniProt P08253) for entry CCCc1ccc(-c2nc3ccc(S(=O)(=O)C4(C(=O)NO)CCOCC4)cc3s2)cc1 , please look it up.
8.45

So what pKi did CCCCc1ccc(C(=O)C2CCN(c3nc4ccc(S(=O)(=O)C5(C(=O)NO)CCOCC5)cc4s3)CC2)s1 get with Human recombinant MMP-2 (Homo sapiens, UniProt P08253)?
7.12

# get_value(readout= pKi, system= Human recombinant MMP-2 (Homo sapiens, UniProt P08253)) for O=C(NO)C1(S(=O)(=O)c2ccc3nc(-c4ccc(F)cc4F)sc3c2)CCOCC1
7.83

Short answer please: pKi, Human recombinant MMP-2 (Homo sapiens, UniProt P08253), entry CN(C(=O)c1ccc(-c2ccc(S(=O)(=O)C3(C(=O)NO)CCOCC3)cn2)cc1)c1ccccc1
6.05

Human recombinant MMP-2 (Homo sapiens, UniProt P08253) / pKi / O=C(NO)C1(S(=O)(=O)c2ccc(-c3ccc(CCC(F)(F)F)cc3)nc2)CCOCC1 : value?
9.18

Human recombinant MMP-2 (Homo sapiens, UniProt P08253) / pKi / O=C(NO)C1(S(=O)(=O)c2ccc3nc(-c4ccc(F)c(F)c4)sc3c2)CCOCC1 : value?
7.99

Param readout = pKi; param system = Human recombinant MMP-2 (Homo sapiens, UniProt P08253); param query = O=C(NO)C1(S(=O)(=O)c2ccc(-c3ccc(OC(F)(F)C(F)F)cc3)s2)CCOCC1 ; response: value
9.76

Param readout = pKi; param system = Human recombinant MMP-2 (Homo sapiens, UniProt P08253); param query = CCCCCc1ccc(-c2ccc(S(=O)(=O)C3(C(=O)NO)CCOCC3)cn2)cc1 ; response: value
8.68

Query the reported pKi for Human recombinant MMP-2 (Homo sapiens, UniProt P08253); item: O=C(c1ccc(-c2ccc(S(=O)(=O)C3(C(=O)NO)CCOCC3)cn2)cc1)N1CCOCC1
5.75

Form entry - test system: Human recombinant MMP-2 (Homo sapiens, UniProt P08253); read-out: pKi; molecule: O=C(NO)C1(S(=O)(=O)c2ccc3c(c2)sc2nc(-c4ccccc4)cn23)CCOCC1
7.33

Recall the recorded pKi for O=C(NO)C1(S(=O)(=O)c2ccc(-c3ccc(CCC(F)(F)C(F)(F)F)cc3)nc2)CCOCC1 with Human recombinant MMP-2 (Homo sapiens, UniProt P08253) and state it.
9.12

Can you look up pKi on Human recombinant MMP-2 (Homo sapiens, UniProt P08253) for O=C(NO)C1(S(=O)(=O)c2ccc(-c3ccc(CCC(F)(F)C(F)(F)F)cn3)s2)CCOCC1 ?
8.50
